Data provenance: the supplement of paper PMC10981050

- Tested on: OCI-AML2
- Assay Name: cell viability relative to vehicle control; higher = less cytotoxic;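 further: after 48 h exposure read by CellTiter-Glo luminescence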
- Assay Context: 10 µM; SRSF2 genotype: P95H/wt
Where a name gives a salt, the structure may show the parent alone.
Could you please mark true (1) for values of cell viability below 90% and false (0) for values at or above it?

Worked examples follow.
1. N=C(NOCC(O)CN1CCCCC1)c1cccnc1 (stereo not given) ... false (0)
2. N[C@@H](Cc1cc(I)c(Oc2cc(I)c(O)c(I)c2)c(I)c1)C(=O)O [Levothyroxine sodium] ... false (0)

Would you kindly verify if cell viability of COC(=O)C1=C(C)NC(C)=C(C(=O)OCCN(C)Cc2ccccc2)C1c1cccc([N+](=O)[O-])c1 (stereo not given) [Nicardipine HCl] is strictly less than 90%? true (1)

I'd appreciate it if you could check whether `O=C(Nc1ncc(SCCN2CCCC2)s1)[C@]1(c2ccc(S(=O)(=O)C3CC3)cc2)C[C@H]1C1CCCCC1` has cell viability smaller than 90%. true (1)

Is the reported cell viability for `Cc1nn(C)c2nc(NNC(=O)Nc3cc(Cl)nc(Cl)c3)cc(C(C)C)c12` strictly below 90%? true (1)

Decide: cell viability of CC1=C(C(=O)OC2CCCCC2)C(c2ccc([N+](=O)[O-])cc2)C2=C(CC(C)(C)CC2=O)N1 (stereo not given) strictly below 90%? true (1)

Is cell viability strictly under 90% for the entry `Cc1cc(-c2ncc(CC(=O)Nc3ccc(-c4cnccn4)cn3)cc2C)ccn1` ? true (1)

---

The compounds listed here are annotated with their cell viability.
- Tested on: K562
- Assay Name: cell viability relative to vehicle control; higher = less cytotoxic
- Assay Context: 10 µM; SRSF2 genotype: SRSF2 wt/wt
Where a name gives a salt, the structure may show the parent alone.
Reply with a number, then the unit it belongs to.

1) CCCNC(=O)Nc1ccc(Oc2ncnc3cc(OC)c(OC)cc23)cc1Cl ... 99.8%
2) CC(=O)O[C@@H]1C[C@@]23C[C@@]24CC[C@H](O[C@@H]2OC[C@@H](O)[C@H](O)[C@H]2O)C(C)(C)[C@@H]4CC=C3[C@]2(C)C[C@@H]3OC4(C[C@@H](C)[C@@H]3[C@@]12C)OC(O)C1(C)OC41 (some centres undefined) [Cimicifugoside] ... 105%
3) O=C(C1CCCCC1)N1CC(=O)N2CCc3ccccc3C2C1 (centres undefined) [Praziquantel (Biltricide)] ... 102%
4) CCCc1nn(C)c2c(=O)[nH]c(-c3cc(S(=O)(=O)N4CCN(C)CC4)ccc3OCC)nc12 [Sildenafil Mesylate] ... 103%
5) COc1ccc(-c2oc3c(CC=C(C)C)c(O)cc(O)c3c(=O)c2O[C@@H]2O[C@@H](C)[C@H](O)[C@@H](O)[C@H]2O)cc1 [Baohuoside I] ... 90.4%

// cell viability lookup, key: `Cn1cc(-c2cnn3c(N)c(Br)c([C@@H]4CCCNC4)nc23)cn1` 25.3%

Which measured cell viability value corresponds to `COCCCc1sc(-c2ccccc2)nc1C(=O)Nc1ccccc1-c1nc2cc(CN3CCCC3)cnc2s1` ? 76.6%

Item O=c1n(CCCN2CCN(c3cccc(Cl)c3)CC2)nc2ccccn12 [Trazodone hydrochloride (Desyrel)] has what recorded cell viability? 103%

Form field: reported cell viability of `CC(C)=CC[C@@H](O)C1=CC(=O)c2c(O)ccc(O)c2C1=O` 0.87%
